- protocol: Solvent scope of N,N′-dialkylaldaramides (1%) or N,N′-dialkylpentaramides (1%): gelation/solubility behaviour in solvents
- Type: physicochemical
- study_conditions: 1% gelling agent; Cyclohexane
observed_property: Gelation/solubility behaviour in Cyclohexane

Example entries and their recorded answers appear below.
CCCCNC(=O)[C@@H](O)[C@@H](O)[C@H](O)[C@H](O)C(=O)NCCCC [Example 2, dibutyl D-mannaramide]; Ns
O=C(NC1CCCCCCCCCCC1)[C@@H](O)[C@H](O)[C@H](O)[C@@H](O)C(=O)NC1CCCCCCCCCCC1 [Example 17, dicyclododecyl galactaramide]; ns
CCCCNC(=O)[C@@H](O)[C@@H](O)[C@H](O)[C@@H](O)C(=O)NCCCC; ns
CCCCNC(=O)[C@@H](O)[C@H](O)[C@H](O)[C@@H](O)C(=O)NCCCC [Example 3, dibutyl galactaramide]; ns
CCCCCCCCNC(=O)[C@@H](O)[C@@H](O)[C@H](O)[C@H](O)C(=O)NCCCCCCCC [Example 9, dioctyl D-mannaramide]; ns

We next turn to a different molecule, shown below.
GET /value?item= CCCCCCCCCCCCNC(=O)[C@@H](O)[C@@H](O)[C@H](O)[C@H](O)C(=O)NCCCCCCCCCCCC [Example 13, didodecyl D-mannaramide] &field=Gelation/solubility behaviour in Cyclohexane returns ns

---

- protocol: Solvent scope of N,N′-dialkylaldaramides (1%) or N,N′-dialkylpentaramides (1%): gelation/solubility behaviour in solvents
- Type: physicochemical
- Parameters: key: g = gelation; s = soluble; p = precipitates; c = crystallizes; ns = not soluble; v = viscous; g* = unstable gel, precipitates; cg = crystalline gel
- study_conditions: 1% gelling agent; 2-propanol
observed_property: Gelation/solubility behaviour in 2-propanol

CCCCCCCCCCCCNC(=O)[C@@H](O)[C@H](O)[C@H](O)[C@@H](O)C(=O)NCCCCCCCCCCCC [Example 14, didodecyl galactaramide]; ns
CCCCCCCC/C=C\CCCCCCCCNC(=O)[C@@H](O)[C@@H](O)[C@H](O)[C@@H](O)C(=O)NCCCCCCCC/C=C\CCCCCCCC [Example 19, dioleyl D-glucaramide]; c
O=C(NC1CCCCCCCCCCC1)[C@@H](O)[C@@H](O)[C@H](O)[C@@H](O)C(=O)NC1CCCCCCCCCCC1 [Example 15, dicyclododecyl D-glucaramide]; c
O=C(NC1CCCCC1)[C@@H](O)[C@@H](O)[C@H](O)[C@@H](O)C(=O)NC1CCCCC1 [Example 5, dicyclohexyl D-glucaramide]; cg

For O=C(NC1CCCCC1)[C@@H](O)[C@@H](O)[C@@H](O)C(=O)NC1CCCCC1 [Example 4, dicyclohexyl D-ribaramide] the compound record lists Gelation/solubility behaviour in 2-propanol as p

Notebook: CCCCCCCCNC(=O)[C@@H](O)[C@H](O)[C@H](O)[C@@H](O)C(=O)NCCCCCCCC [Example 10, dioctyl galactaramide] , Gelation/solubility behaviour in 2-propanol read as ns

---

- protocol: Solvent scope of N,N′-dialkylaldaramides (1%) or N,N′-dialkylpentaramides (1%): gelation/solubility behaviour in solvents
- Assay type: physicochemical
- Design: key: g = gelation; s = soluble; p = precipitates; c = crystallizes; ns = not soluble; v = viscous; g* = unstable gel, precipitates; cg = crystalline gel
- study_conditions: 1% gelling agent; 2-octanol
observed_property: Gelation/solubility behaviour in 2-octanol

CCCCCCCCCCCCNC(=O)[C@@H](O)[C@@H](O)[C@H](OC)[C@@H](O)C(=O)NCCCCCCCCCCCC [Example 21, 3-O-methyl-didodecyl D-glucaramide]; c
O=C(NC1CCCCCCCCCCC1)[C@@H](O)[C@@H](O)[C@H](O)[C@H](O)C(=O)NC1CCCCCCCCCCC1 [Example 16, dicyclododecyl D-mannaramide]; s
CC(C)=CCCC(C)CCNC(=O)[C@@H](O)[C@@H](O)[C@H](O)[C@@H](O)C(=O)NCCC(C)CCC=C(C)C (stereo partly drawn) [Example 11, dicitronellyl D-glucaramide]; s

---

- protocol: Solvent scope of N,N′-dialkylaldaramides (1%) or N,N′-dialkylpentaramides (1%): gelation/solubility behaviour in solvents
- Format: physicochemical
- Parameters: key: g = gelation; s = soluble; p = precipitates; c = crystallizes; ns = not soluble; v = viscous; g* = unstable gel, precipitates; cg = crystalline gel
- study_conditions: 1% gelling agent; Hexadecane
observed_property: Gelation/solubility behaviour in Hexadecane

Observe how each entry below is paired with its result.
O=C(NC1CCCCC1)[C@@H](O)[C@@H](O)[C@H](O)[C@@H](O)C(=O)NC1CCCCC1 [Example 5, dicyclohexyl D-glucaramide]; ns
CCCCCCCC/C=C\CCCCCCCCNC(=O)[C@@H](O)[C@@H](O)[C@H](O)[C@@H](O)C(=O)NCCCCCCCC/C=C\CCCCCCCC [Example 19, dioleyl D-glucaramide]; p
O=C(NC1CCCCC1)[C@@H](O)[C@@H](O)[C@@H](O)C(=O)NC1CCCCC1 [Example 4, dicyclohexyl D-ribaramide]; ns
O=C(NC1CCCCCCCCCCC1)[C@@H](O)[C@@H](O)[C@H](O)[C@@H](O)C(=O)NC1CCCCCCCCCCC1 [Example 15, dicyclododecyl D-glucaramide]; ns
CCCCCCCCNC(=O)[C@@H](O)[C@@H](O)[C@H](O)[C@H](O)C(=O)NCCCCCCCC [Example 9, dioctyl D-mannaramide]; ns

Record CO[C@@H]([C@H](O)[C@H](O)C(=O)NC1CCCCC1)[C@@H](O)C(=O)NC1CCCCC1 [Example 20, 3-O-methyl-dicyclohexyl D-glucaramide] , field Gelation/solubility behaviour in Hexadecane: ns

Gelation/solubility behaviour in Hexadecane reported for this molecule CCCCCCCCCCCCNC(=O)[C@@H](O)[C@@H](O)[C@H](O)[C@H](O)C(=O)NCCCCCCCCCCCC [Example 13, didodecyl D-mannaramide] : ns

For reference, reported Gelation/solubility behaviour in Hexadecane for CCCCCCCCCCCCNC(=O)[C@@H](O)[C@@H](O)[C@H](OC)[C@@H](O)C(=O)NCCCCCCCCCCCC [Example 21, 3-O-methyl-didodecyl D-glucaramide] stands at p

Recorded Gelation/solubility behaviour in Hexadecane (molecule CCCCNC(=O)[C@@H](O)[C@@H](O)[C@H](O)[C@@H](O)C(=O)NCCCC [Example 1, dibutyl D-glucaramicle] ): ns

---

- protocol: Solvent scope of N,N′-dialkylaldaramides (1%) or N,N′-dialkylpentaramides (1%): gelation/solubility behaviour in solvents
- Assay type: physicochemical
- Design: key: g = gelation; s = soluble; p = precipitates; c = crystallizes; ns = not soluble; v = viscous; g* = unstable gel, precipitates; cg = crystalline gel
- study_conditions: 1% gelling agent; 2-propanol
- From the text: It will be understood that the use of the present gelling agents or thickeners to prepare a gel or to thicken a composition is also encompassed by the invention. As is well known, gelling behavior of compounds or compositions is highly unpredictable. […] Preferably, the gelling phenomenon is thermo reversible. […]
observed_property: Gelation/solubility behaviour in 2-propanol

O=C(NC1CCCCCCCCCCC1)[C@@H](O)[C@@H](O)[C@H](O)[C@H](O)C(=O)NC1CCCCCCCCCCC1 [Example 16, dicyclododecyl D-mannaramide]; cg
CCCCNC(=O)[C@@H](O)[C@H](O)[C@H](O)[C@@H](O)C(=O)NCCCC [Example 3, dibutyl galactaramide]; c
CO[C@@H]([C@H](O)[C@H](O)C(=O)NC1CCCCC1)[C@@H](O)C(=O)NC1CCCCC1 [Example 20, 3-O-methyl-dicyclohexyl D-glucaramide]; c
CCCCCCCCCCCCNC(=O)[C@@H](O)[C@@H](O)[C@H](OC)[C@@H](O)C(=O)NCCCCCCCCCCCC [Example 21, 3-O-methyl-didodecyl D-glucaramide]; p

API: the following record is the query input.
Lab note: measured Gelation/solubility behaviour in 2-propanol of CC(C)=CCCC(C)CCNC(=O)[C@@H](O)[C@@H](O)[C@H](O)[C@@H](O)C(=O)NCCC(C)CCC=C(C)C (stereo partly drawn) [Example 11, dicitronellyl D-glucaramide] was s

---

- protocol: Solvent scope of N,N′-dialkylaldaramides (1%) or N,N′-dialkylpentaramides (1%): gelation/solubility behaviour in solvents
- Format: physicochemical
- Set-up: key: g = gelation; s = soluble; p = precipitates; c = crystallizes; ns = not soluble; v = viscous; g* = unstable gel, precipitates; cg = crystalline gel
- study_conditions: 1% gelling agent; p-xylene
observed_property: Gelation/solubility behaviour in p-xylene

Would you please look over these solved cases?
CCCCCCCCCCCCNC(=O)[C@@H](O)[C@@H](O)[C@H](O)[C@@H](O)C(=O)NCCCCCCCCCCCC [Example 12, didodecyl D-glucaramide]; ns
CCCCCCCCCCCCNC(=O)[C@@H](O)[C@@H](O)[C@H](O)[C@H](O)C(=O)NCCCCCCCCCCCC [Example 13, didodecyl D-mannaramide]; ns
CCCCNC(=O)[C@@H](O)[C@@H](O)[C@H](O)[C@@H](O)C(=O)NCCCC; ns
CCCCNC(=O)[C@@H](O)[C@H](O)[C@H](O)[C@@H](O)C(=O)NCCCC [Example 3, dibutyl galactaramide]; ns
O=C(NC1CCCCCCCCCCC1)[C@@H](O)[C@@H](O)[C@H](O)[C@@H](O)C(=O)NC1CCCCCCCCCCC1 [Example 15, dicyclododecyl D-glucaramide]; g

Given item CCCCCCCCNC(=O)[C@@H](O)[C@@H](O)[C@H](O)[C@@H](O)C(=O)NCCCCCCCC [Example 8, dioctyl D-glucaramide] , the value recorded as its Gelation/solubility behaviour in p-xylene is ns

Record summary for CCCCNC(=O)[C@@H](O)[C@@H](O)[C@H](O)[C@H](O)C(=O)NCCCC [Example 2, dibutyl D-mannaramide] : reported Gelation/solubility behaviour in p-xylene = Ns

// sample O=C(NC1CCCCC1)[C@@H](O)[C@@H](O)[C@@H](O)C(=O)NC1CCCCC1 [Example 4, dicyclohexyl D-ribaramide] , its Gelation/solubility behaviour in p-xylene was p

Noted for CCCCCCCC/C=C\CCCCCCCCNC(=O)[C@@H](O)[C@@H](O)[C@H](O)[C@@H](O)C(=O)NCCCCCCCC/C=C\CCCCCCCC [Example 19, dioleyl D-glucaramide] : its Gelation/solubility behaviour in p-xylene reads p

Kindly note the recorded Gelation/solubility behaviour in p-xylene for "O=C(NC1CCCCC1)[C@@H](O)[C@@H](O)[C@H](O)[C@@H](O)C(=O)NC1CCCCCCCCCCC1" , which is p

// recorded Gelation/solubility behaviour in p-xylene for CCCCCCCCCCCCNC(=O)[C@@H](O)[C@H](O)[C@H](O)[C@@H](O)C(=O)NCCCCCCCCCCCC [Example 14, didodecyl galactaramide] : ns

Recorded result, CO[C@@H]([C@H](O)[C@H](O)C(=O)NC1CCCCC1)[C@@H](O)C(=O)NC1CCCCC1 [Example 20, 3-O-methyl-dicyclohexyl D-glucaramide] , Gelation/solubility behaviour in p-xylene: p
